Target: HLA-A*02:03
Test: IEDB peptide-MHC binding, purified MHC/competitive/radioactivity; filed as Kd, often an IC50 or EC50 that approximates it; bounds were set here for any values at or beyond the usual limits of such assays
Conditions: source organism: Vaccinia virus WR
ASSAY ENDPOINT: Kd (nM)
Give the value in nM but do not write nM after it.

Find the measured Kd of DVEKRILNTI and report it.
12600

Find the measured Kd of ALEPRKEIDV and report it.
11200

Find the measured Kd of FIMRNFLRSI and report it.
0.118

Find the measured Kd of FMSHVKSVT and report it.
181

Find the measured Kd of YVHEGVSYEV and report it.
71

Find the measured Kd of KADAVVADL and report it.
12400

Find the measured Kd of SLVITYCLV and report it.
201

Find the measured Kd of VIPDELIDV and report it.
43.8

Find the measured Kd of GALYLGHSA and report it.
1900

Find the measured Kd of ELPVKTDIV and report it.
8060

Find the measured Kd of GMMQNDYGGM and report it.
589

Find the measured Kd of IISYIILFIL and report it.
489

Find the measured Kd of PIPYSRVNHA and report it.
15300

Find the measured Kd of QILDNAAKYV and report it.
3870

Find the measured Kd of ETLFGSYIT and report it.
2440

Find the measured Kd of KLPTLFGRGV and report it.
32.6

Find the measured Kd of PTRTWKVLSI and report it.
15100

Find the measured Kd of ALINLVQYRI and report it.
81.6

Find the measured Kd of RTRLYDYFT and report it.
3050

Find the measured Kd of NTNQGNILM and report it.
1150

Find the measured Kd of ALVSDCASTI and report it.
52.1

Find the measured Kd of GMSIVCIVAA and report it.
231

Find the measured Kd of SAEVERLMEL and report it.
2500

Find the measured Kd of YAGTIKESL and report it.
2490

Find the measured Kd of GAFMYTKHSM and report it.
458

Find the measured Kd of LINLVQYRI and report it.
583

Find the measured Kd of NLYISDYKML and report it.
1830

Find the measured Kd of ILDNAAKYV and report it.
261

Find the measured Kd of QLYTISSESL and report it.
245

Find the measured Kd of AADLTQIFEV and report it.
404

Find the measured Kd of TTLLNETAKV and report it.
0.17

Find the measured Kd of YVEHDPRLV and report it.
711

Find the measured Kd of VLALYSPPL and report it.
0.412

Find the measured Kd of TLFIDRGSI and report it.
802

Find the measured Kd of CTIVDSMII and report it.
1790

Find the measured Kd of TTIGTIAGGV and report it.
42.6

Find the measured Kd of QVKELGIAI and report it.
882

Find the measured Kd of EVNDTHYTV and report it.
115

Find the measured Kd of PTSETMYLTM and report it.
191

Find the measured Kd of LLGLILFVL and report it.
1860

Find the measured Kd of YLGPRVCWL and report it.
3.36

###

Molecular target: HLA-B*39:01
Experiment: IEDB peptide-MHC binding, purified MHC/competitive/fluorescence; filed as Kd, often an IC50 or EC50 that approximates it; bounds were set here for any values at or beyond the usual limits of such assays
Details: source organism: Orthohantavirus andesense
ASSAY ENDPOINT: Kd

Recall the reported Kd of SIKFKRKLM on HLA-B*39:01 and write it down.
≥ 20 µM

###

Biological target: HLA-B*27:05
Test: IEDB peptide-MHC binding, purified MHC/competitive/fluorescence; bounds were set here for any values at or beyond the usual limits of such assays
Settings: source organism: hepatitis C virus genotype 1a
ASSAY ENDPOINT: IC50 (µM)
Give the value in µM but do not write µM after it.

Find the measured IC50 of GKAVICGKY and report it.
4.67

###

Molecular target: HLA-A*02:01
Assay: IEDB peptide-MHC binding, purified MHC/direct/fluorescence; filed as Kd, often an IC50 or EC50 that approximates it; bounds were set here for any values at or beyond the usual limits of such assays
Settings: source organism: Salmonella enterica subsp. enterica serovar Typhimurium str. LT2
pKd: −log10 of the molar value.
ASSAY ENDPOINT: pKd

Find the measured pKd of FKYDSTKPL and report it.
≤ 4.70

###

Biological target: HLA-A*02:11
Assay: IEDB peptide-MHC binding, purified MHC/direct/fluorescence; filed as Kd, often an IC50 or EC50 that approximates it; bounds were set here for any values at or beyond the usual limits of such assays
Settings: source organism: Ravn virus - Ravn, Kenya, 1987
ASSAY ENDPOINT: Kd

Find the measured Kd of HSGFIYFGK and report it.
≥ 20 µM

###

Target: HLA-B*46:01
Assay: IEDB peptide-MHC binding, purified MHC/direct/fluorescence; filed as Kd, often an IC50 or EC50 that approximates it; bounds were set here for any values at or beyond the usual limits of such assays
Conditions: source organism: Marburg virus - Musoke, Kenya, 1980
pKd: −log10 of the molar value.
ASSAY ENDPOINT: pKd

Find the measured pKd of KLDFIRNTK and report it.
≤ 4.70

###

Molecular target: HLA-A*26:01
Experiment: IEDB peptide-MHC binding, purified MHC/competitive/radioactivity; filed as Kd, often an IC50 or EC50 that approximates it; bounds were set here for any values at or beyond the usual limits of such assays
Conditions: source organism: Dengue virus 2 Jamaica/1409/1983
ASSAY ENDPOINT: Kd (µM)
Give the value in µM but do not write µM after it.

Find the measured Kd of DTITYKCPL and report it.
3.38

###

Biological target: HLA-A*02:01
Assay: IEDB peptide-MHC binding, cellular MHC/competitive/fluorescence; bounds were set here for any values at or beyond the usual limits of such assays
Conditions: source organism: Mycobacterium tuberculosis
ASSAY ENDPOINT: pIC50
Please express pIC50 as -log10 of the molar concentration.

Find the measured pIC50 of AQLLTEFAI and report it.
4.60

###

Target: HLA-B*57:01
Assay: IEDB peptide-MHC binding, purified MHC/competitive/fluorescence; filed as Kd, often an IC50 or EC50 that approximates it; bounds were set here for any values at or beyond the usual limits of such assays
Settings: source organism: Sudan ebolavirus
ASSAY ENDPOINT: Kd

Find the measured Kd of YTENTSSYY and report it.
≥ 20 µM

###

Molecular target: HLA-A*02:12
Assay: IEDB peptide-MHC binding, purified MHC/competitive/fluorescence; filed as Kd, often an IC50 or EC50 that approximates it; bounds were set here for any values at or beyond the usual limits of such assays
Conditions: source organism: Burkholderia pseudomallei 668
ASSAY ENDPOINT: Kd
# do not omit the unit; it follows the number

Find the measured Kd of GIYGAVIPL and report it.
8.6 nM

###

Target: HLA-A*29:02
Assay: IEDB peptide-MHC binding, purified MHC/competitive/fluorescence; filed as Kd, often an IC50 or EC50 that approximates it; bounds were set here for any values at or beyond the usual limits of such assays
Details: source organism: Shigella boydii CDC 3083-94
ASSAY ENDPOINT: pKd
Please express pKd as -log10 of the molar concentration.

Find the measured pKd of GMMRWCMPV and report it.
7.29

###

Target: HLA-B*08:01
Assay: IEDB peptide-MHC binding, purified MHC/direct/fluorescence; filed as Kd, often an IC50 or EC50 that approximates it; bounds were set here for any values at or beyond the usual limits of such assays
Details: source organism: Francisella tularensis subsp. holarctica LVS
ASSAY ENDPOINT: Kd

Find the measured Kd of EFKQILTDF and report it.
6 µM

###

Biological target: HLA-B*07:02
Test: IEDB peptide-MHC binding, purified MHC/direct/fluorescence; filed as Kd, often an IC50 or EC50 that approximates it; bounds were set here for any values at or beyond the usual limits of such assays
Conditions: source organism: Vibrio vulnificus
Would you kindly list Kd for each of these sequences?

Recall the reported Kd of EEVWRDPYL on HLA-B*07:02 and write it down.
≥ 20 µM

Recall the reported Kd of QSDIAGAIH on HLA-B*07:02 and write it down.
≥ 20 µM

###

Target: HLA-A*11:01
Assay: IEDB peptide-MHC binding, purified MHC/direct/fluorescence; filed as Kd, often an IC50 or EC50 that approximates it; bounds were set here for any values at or beyond the usual limits of such assays
Conditions: source organism: Francisella tularensis subsp. holarctica LVS
ASSAY ENDPOINT: Kd

Find the measured Kd of EFKQILTDF and report it.
≥ 20 µM

###

Target: HLA-A*03:01
Test: IEDB peptide-MHC binding, purified MHC/competitive/radioactivity; filed as Kd, often an IC50 or EC50 that approximates it; bounds were set here for any values at or beyond the usual limits of such assays
Conditions: source organism: Triticum aestivum
pKd: −log10 of the molar value.
ASSAY ENDPOINT: pKd

Find the measured pKd of QLLQELCCQH and report it.
≤ 4.57
